Test system: TE-4 (Esophageal Squamous Cell Carcinoma)
ASSAY_NOTES: combination Emax (second highest fraction inhibited in the dose matrix, 72 h); higher = more inhibition; extreme values may be limits of the assay
MEASURED_ENDPOINT: combination Emax

C[C@@H]1COCCN1c1cc(C2([S@](C)(=N)=O)CC2)nc(-c2ccnc3[nH]ccc23)n1 [AZD6738] + O=C(c1cc(Cc2n[nH]c(=O)c3ccccc23)ccc1F)N1CCN(C(=O)C2CC2)CC1 [Olaparib] (first compound max 10 µM, 7x7, partner max 10 µM)
0.527
Cc1c2c(nn1C)CSCc1cc(n(C)n1)CSc1cc(c3ccccc3c1)OCCCc1c(C(=O)O)n(C)c3c-2c(Cl)ccc13 [AZD5991] + C[C@@H]1COCCN1C2=NC(=NC(=C2)C3(CC3)[S@](=N)(=O)C)C4=C5C=CNC5=NC=C4 [AZD6738] (first compound max 1 µM, 7x7, partner max 10 µM)
0.773

* * *

Below, each of the compounds is paired with its reported Bliss excess value.
System: HDLM-2 (Hodgkin's Lymphoma);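 further: after 72 h of two-drug dosing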
ASSAY_NOTES: Bliss excess, mean over the matrix (fraction); higher = more synergy
MEASURED_ENDPOINT: Bliss excess

CC1(C)CCC(CN2CCN(c3ccc(C(=O)NS(=O)(=O)c4ccc(NCC5CCOCC5)c([N+](=O)[O-])c4)c(Oc4cnc5[nH]ccc5c4)c3)CC2)=C(c2ccc(Cl)cc2)C1 [Venetoclax] + CCN(CCO)CCCOc1ccc2c(Nc3cc(CC(=O)Nc4cccc(F)c4)[nH]n3)ncnc2c1 [AZD2811] (first compound max 1 µM, 7x7, partner max 1 µM)
0.106
Cc1c2c(nn1C)CSCc1cc(n(C)n1)CSc1cc(c3ccccc3c1)OCCCc1c(C(=O)O)n(C)c3c-2c(Cl)ccc13 [AZD5991] + C[C@@H]1COCCN1C2=NC(=NC(=C2)C3(CC3)[S@](=N)(=O)C)C4=C5C=CNC5=NC=C4 [AZD6738] (first compound max 1 µM, 7x7, partner max 10 µM)
-0.0291
CN(CCO)CC[C@H](CSc1ccccc1)Nc1ccc(S(=O)(=O)NC(=O)c2ccc(N3CCC([C@@H](O)c4ccccc4-c4ccc(Cl)cc4)CC3)cc2)cc1S(=O)(=O)C(F)(F)F [AZD4320] + C[C@@H](Nc1cc(F)cc(F)c1)c1cc(C(=O)N(C)C)cc2c(=O)cc(N3CCOCC3)oc12 [AZD8186] (first compound max 1 µM, 7x7, partner max 3 µM)
0.0434

* * *

Test system: SK-OV-3 (Ovarian Carcinoma)
ASSAY_NOTES: combination Emax (second highest fraction inhibited in the dose matrix, 72 h); higher = more inhibition; extreme values may be limits of the assay
Below, each of the molecules is paired with its reported combination Emax value.
MEASURED_ENDPOINT: combination Emax

COc1nnc2ccc(N3CCC(c4ccc(OCCN5CCN(C)C(=O)[C@H]5C)cc4)CC3)nn12 [AZD5153] + C[C@@H]1COCCN1C2=NC(=NC(=C2)C3(CC3)[S@](=N)(=O)C)C4=C5C=CNC5=NC=C4 [AZD6738] (first compound max 1 µM, 7x7, partner max 10 µM)
0.481
CCN(CCO)CCCOc1ccc2c(Nc3cc(CC(=O)Nc4cccc(F)c4)[nH]n3)ncnc2c1 [AZD2811] + C[C@@H]1COCCN1C2=NC(=NC(=C2)C3(CC3)[S@](=N)(=O)C)C4=C5C=CNC5=NC=C4 [AZD6738] (first compound max 1 µM, 7x7, partner max 10 µM)
0.547
Cc1c2c(nn1C)CSCc1cc(n(C)n1)CSc1cc(c3ccccc3c1)OCCCc1c(C(=O)O)n(C)c3c-2c(Cl)ccc13 [AZD5991] + Cn1cnc2c(F)c(Nc3ccc(Br)cc3Cl)c(C(=O)NOCCO)cc21 [Selumetinib] (first compound max 1 µM, 7x7, partner max 3 µM)
0.333
C[C@@H]1COCCN1c1cc(C2([S@](C)(=N)=O)CC2)nc(-c2ccnc3[nH]ccc23)n1 [AZD6738] + C1CC(C1)(C(=O)[O-])C(=O)[O-].N.N.[Pt+2] [Carboplatin] (first compound max 10 µM, 7x7, partner max 10 µM)
0.36
Cc1c2c(nn1C)CSCc1cc(n(C)n1)CSc1cc(c3ccccc3c1)OCCCc1c(C(=O)O)n(C)c3c-2c(Cl)ccc13 [AZD5991] + CCN(CCO)CCCOc1ccc2c(Nc3cc(CC(=O)Nc4cccc(F)c4)[nH]n3)ncnc2c1 [AZD2811] (first compound max 1 µM, 7x7, partner max 1 µM)
0.301
C=CCn1c(=O)c2cnc(Nc3ccc(N4CCN(C)CC4)cc3)nc2n1-c1cccc(C(C)(C)O)n1 [AZD1775] + Nc1ccn([C@@H]2O[C@H](CO)[C@@H](O)C2(F)F)c(=O)n1 [Gemcitabine] (first compound max 1 µM, partner max 0.3 µM)
0.583
COc1cccc(OCCCN)c1-c1cc(Nc2cnc(C#N)cn2)n[nH]1 [Prexasertib] + O=C(c1cc(Cc2n[nH]c(=O)c3ccccc23)ccc1F)N1CCN(C(=O)C2CC2)CC1 [Olaparib] (first compound max 1 µM, 7x7, partner max 10 µM)
0.713

Recorded values, source the supplement of paper PMC11061612.
